system: bromegrass, downy (downy bromegrass, Bromus tectorum); assay: Test C pre-/postemergence: bromegrass, downy; assay type: in vivo; conditions: Postemergence, 31 g ai/ha; scale 0 to 100 (0 no effect, 100 complete control)
I'd appreciate it if you could supply Plant response rating, Bromegrass, Downy values for the items below.
// no unit, no text: just the number

Ask: Write down the reported Plant response rating, Bromegrass, Downy of FC(F)(F)COc1nn(-c2ccc(C(F)(F)F)cc2)nc1Cc1ccnc(C(F)(F)F)c1 [Compound 14] , test system: bromegrass, downy (downy bromegrass, Bromus tectorum).
Reply: 30

Ask: Write down the reported Plant response rating, Bromegrass, Downy of Cc1nn(-c2ccc(C(F)(F)F)cc2)nc1Oc1ccnc(C(F)(F)F)c1 [Compound 120] , test system: bromegrass, downy (downy bromegrass, Bromus tectorum).
Reply: 15

Ask: Write down the reported Plant response rating, Bromegrass, Downy of Cc1nn(-c2ccnc(Cl)c2)nc1Cc1ccnc(C(F)(F)F)c1 [Compound 141] , test system: bromegrass, downy (downy bromegrass, Bromus tectorum).
Reply: 25

Ask: Write down the reported Plant response rating, Bromegrass, Downy of FC(F)Oc1nn(-c2ccc(C(F)(F)F)cc2)nc1Cc1ccnc(C(F)(F)F)c1 [Compound 26] , test system: bromegrass, downy (downy bromegrass, Bromus tectorum).
Reply: 15

Ask: Write down the reported Plant response rating, Bromegrass, Downy of Fc1ccc(-n2nc(Cc3ccnc(C(F)(F)F)c3)c(OC(F)F)n2)cc1 [Compound 25] , test system: bromegrass, downy (downy bromegrass, Bromus tectorum).
Reply: 5

###

system: Oilseed Rape; assay: Test C postemergence: oilseed rape; format: in vivo; conditions: 62 g ai/ha, scale 0 to 100 (0 no effect, 100 complete control)
I'd appreciate it if you could supply Plant response rating, Oilseed Rape values for the items below.

Ask: Could you tell me which Plant response rating, Oilseed Rape is on file for CCCc1nn(-c2ccc(F)cc2F)nc1Oc1ccnc(C(F)(F)F)c1 ?
Reply: 40

Ask: Could you tell me which Plant response rating, Oilseed Rape is on file for CCc1nn(-c2ccc(F)c(F)c2)nc1Oc1ccnc(C(F)(F)F)c1 ?
Reply: 20

Ask: Could you tell me which Plant response rating, Oilseed Rape is on file for Cc1nn(-c2ccc(F)c(C(F)(F)F)c2)nc1Cc1ccnc(C(F)(F)F)c1 ?
Reply: 90

Ask: Could you tell me which Plant response rating, Oilseed Rape is on file for CCc1nn(-c2ccc(C(F)(F)F)cc2)nc1Oc1ccnc(C(F)(F)F)c1 ?
Reply: 40

Ask: Could you tell me which Plant response rating, Oilseed Rape is on file for CCCc1nn(-c2ccc(C(F)(F)F)cc2)nc1Oc1ccnc(C(F)(F)F)c1 ?
Reply: 50

Ask: Could you tell me which Plant response rating, Oilseed Rape is on file for CCc1nn(-c2ccc(C(F)(F)F)cc2)nc1Cc1ccnc(C(F)(F)F)c1 ?
Reply: 90

###

I'd appreciate it if you could supply Morningglory plant response rating values for the items below.
system: morningglory (Ipomoea spp.); experiment: Test A pre-/postemergence: morningglory; type: in vivo; conditions: Postemergence, 500 g ai/ha; visual rating on 0 to 100 scale (0 no effect, 100 complete control), approximately ten days

Ask: Could you tell me which Morningglory plant response rating is on file for Cc1nn(-c2ccc(C(F)(F)F)cn2)nc1C(=O)c1cccc(C(F)(F)F)c1 ?
Reply: 80

Ask: Could you tell me which Morningglory plant response rating is on file for Cc1nn(-c2cccc(C(F)(F)F)c2)nc1Oc1cc(C(F)(F)F)nn1C ?
Reply: 0

Ask: Could you tell me which Morningglory plant response rating is on file for COc1nn(-c2ccc(C(F)(F)F)cc2)nc1Cn1nc(C(F)(F)F)cc1C(F)(F)F ?
Reply: 0

Ask: Could you tell me which Morningglory plant response rating is on file for Cc1nn(-c2ccc(C(F)(F)F)c(F)c2)nc1Oc1ccnc(C(F)(F)F)c1 ?
Reply: 90

###

tested on: morningglory (Ipomoea coccinea); test: Test C pre-/postemergence: morningglory; format: in vivo; settings: Preemergence, 125 g ai/ha; scale 0 to 100, 0 no effect, 100 complete control
Rule for this label: 1 means Plant response rating, Morningglory is less than 60; 0 means Plant response rating, Morningglory is at least 60.

Ask: Does the reported Plant response rating, Morningglory of the following compound sit strictly below 60? COc1nn(-c2ccc(C(F)(F)F)cc2)nc1Cc1ccnc(C(F)(F)F)c1
Reply: 1

Ask: Does the reported Plant response rating, Morningglory of the following compound sit strictly below 60? Cc1nn(-c2ccc(F)c(C(F)(F)F)c2)nc1Cc1ccnc(C(F)(F)F)c1
Reply: 1

Ask: Does the reported Plant response rating, Morningglory of the following compound sit strictly below 60? CCc1nn(-c2ccc(C(F)(F)F)cc2)nc1Oc1ccnc(C(F)(F)F)c1
Reply: 0

Ask: Does the reported Plant response rating, Morningglory of the following compound sit strictly below 60? Cc1nn(-c2ccc(C(F)(F)F)cc2)nc1Oc1ccnc(C(F)(F)F)c1
Reply: 1

Ask: Does the reported Plant response rating, Morningglory of the following compound sit strictly below 60? CCCc1nn(-c2ccc(C(F)(F)F)cc2)nc1Oc1ccnc(C(F)(F)F)c1
Reply: 0

Ask: Does the reported Plant response rating, Morningglory of the following compound sit strictly below 60? Cc1nn(-c2ccc(C(F)(F)F)c(F)c2)nc1Oc1ccnc(C(F)(F)F)c1
Reply: 1

Ask: Does the reported Plant response rating, Morningglory of the following compound sit strictly below 60? Cc1nn(-c2ccc(C(F)(F)F)cn2)nc1Cc1cccc(C(F)(F)F)c1
Reply: 1

Ask: Does the reported Plant response rating, Morningglory of the following compound sit strictly below 60? CCCc1nn(-c2ccc(F)cc2)nc1Oc1ccnc(C(F)(F)F)c1
Reply: 1

Ask: Does the reported Plant response rating, Morningglory of the following compound sit strictly below 60? CCOc1nn(-c2ccc(C(F)(F)F)cc2)nc1Cc1ccnc(C(F)(F)F)c1
Reply: 1

###

system: corn (Zea mays); test: Test C pre-/postemergence: corn; format: in vivo; conditions: Postemergence, 250 g ai/ha; scale 0 to 100
Quantity name: Plant response rating, Corn
// no unit, no text: just the number

Ask: Could you tell me which Plant response rating, Corn is on file for COc1nn(-c2cccc(F)c2)nc1Cc1ccnc(C(F)(F)F)c1 [Compound 139] ?
Reply: 60

Ask: Could you tell me which Plant response rating, Corn is on file for CCOc1nn(-c2ccc(F)cc2)nc1Cc1ccnc(C(F)(F)F)c1 [Compound 196] ?
Reply: 65

Ask: Could you tell me which Plant response rating, Corn is on file for CCc1nn(-c2ccc(F)c(F)c2)nc1Oc1ccnc(C(F)(F)F)c1 [Compound 171] ?
Reply: 15

Ask: Could you tell me which Plant response rating, Corn is on file for Cc1nn(-c2ccc(C(F)(F)F)c(F)c2)nc1Oc1ccnc(C(F)(F)F)c1 [Compound 148] ?
Reply: 60

Ask: Could you tell me which Plant response rating, Corn is on file for CCOc1nn(-c2ccc(Cl)cc2)nc1Cc1ccnc(C(F)(F)F)c1 [Compound 188] ?
Reply: 35

Ask: Could you tell me which Plant response rating, Corn is on file for FC(F)(F)COc1nn(-c2ccc(C(F)(F)F)cc2)nc1Cc1ccnc(C(F)(F)F)c1 [Compound 14] ?
Reply: 15

Ask: Could you tell me which Plant response rating, Corn is on file for CCOc1nn(-c2ccc(C(F)(F)F)cc2)nc1Cc1ccnc(C(F)(F)F)c1 [Compound 164] ?
Reply: 20

###

tested on: corn (Zea mays); assay: Test C pre-/postemergence: corn; type: in vivo; conditions: Preemergence, 125 g ai/ha; scale 0 to 100, 0 no effect, 100 complete control
Quantity name: Plant response rating, Corn
// no unit, no text: just the number

Ask: Could you tell me which Plant response rating, Corn is on file for CCCc1nn(-c2ccc(F)c(F)c2)nc1Oc1ccnc(C(F)(F)F)c1 [Compound 172] ?
Reply: 15

Ask: Could you tell me which Plant response rating, Corn is on file for CCOc1nn(-c2ccc(F)cc2)nc1Cc1ccnc(C(F)(F)F)c1 [Compound 196] ?
Reply: 45

Ask: Could you tell me which Plant response rating, Corn is on file for CCc1nn(-c2ccc(C(F)(F)F)c(F)c2)nc1Oc1ccnc(C(F)(F)F)c1 [Compound 183] ?
Reply: 40

Ask: Could you tell me which Plant response rating, Corn is on file for Cc1nn(-c2ccc(F)c(C(F)(F)F)c2)nc1Cc1ccnc(C(F)(F)F)c1 [Compound 156] ?
Reply: 10

Ask: Could you tell me which Plant response rating, Corn is on file for COc1nn(-c2cccc(F)c2)nc1Cc1ccnc(C(F)(F)F)c1 [Compound 139] ?
Reply: 10

###

I'd appreciate it if you could supply Plant response rating: Radish, Wild values for the items below.
test system: radish, wild (wild radish, Raphanus raphanistrum); test: Test D pre-/postemergence: radish, wild; type: in vivo; settings: Postemergence, 125 g ai/ha; scale 0 to 100, 0 no effect, 100 complete control
// no unit, no text: just the number

Ask: Write down the reported Plant response rating: Radish, Wild of CCc1nn(-c2ccc(C(F)(F)F)cc2)nc1Cc1ccnc(C(F)(F)F)c1 , test system: radish, wild (wild radish, Raphanus raphanistrum).
Reply: 100

Ask: Write down the reported Plant response rating: Radish, Wild of FC(F)(F)COc1nn(-c2ccc(C(F)(F)F)cc2)nc1Cc1ccnc(C(F)(F)F)c1 , test system: radish, wild (wild radish, Raphanus raphanistrum).
Reply: 100

Ask: Write down the reported Plant response rating: Radish, Wild of COc1nn(-c2ccc(C(F)(F)F)cc2)nc1Cc1ccnc(C(F)(F)F)c1 , test system: radish, wild (wild radish, Raphanus raphanistrum).
Reply: 100

Ask: Write down the reported Plant response rating: Radish, Wild of Cc1nn(-c2ccc(C(F)(F)F)cn2)nc1Cc1cccc(C(F)(F)F)c1 , test system: radish, wild (wild radish, Raphanus raphanistrum).
Reply: 100

Just for reference, patent US9302999B2 is where these values come from.
